B1: FBXO3 (parent)
chain: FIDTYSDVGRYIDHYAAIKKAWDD

Variants of: B1
Assay: protein stability index of a GFP-peptide fusion (GPS, HEK-293T) (PSI 1-6); higher = more stable;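 further: lentivirally expressed fusions sorted by FACS into six bins by GFP to DsRed ratio, PSI derived from sequencing read proportions per bin multiplied by bin number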
Conditions: c terminus: a fixed tail appended
VALUE TYPE: protein stability index

>>> value_measured("FIDTYVDVGRYIDHYAAIKKAWDD [S6V]")
2.35
>>> value_measured("FIDNYSDVGRYIDHYAAIKKAWDD [T4N]")
2.02
>>> value_measured("FIDTYSDVGRYIDHYAAIKKAWDY [D24Y]")
2.19
>>> value_measured("FIQTYSDVGRYIDHYAAIKKAWDD [D3Q]")
1.82
>>> value_measured("FIDTYSDVGRYIDHYAAIKKAHDD [W22H]")
2.02
>>> value_measured("FSDTYSDVGRYIDHYAAIKKAWDD [I2S]")
3.14
>>> value_measured("FIDTYSDVGRYIDDYAAIKKAWDD [H14D]")
2.7
>>> value_measured("FIDTYSDVGRYIDHYAAIKKAWND [D23N]")
2.29

Req: For the variant FIDTYSDVGRYIDHYAAVKKAWDD [I18V] , what protein stability index is on record?
Resp: 2.16

Req: Next record, please: FIDTYSVVGRYIDHYAAIKKAWDD [D7V]
Resp: 2.43

Req: Next record, please: FIDTYSDEGRYIDHYAAIKKAWDD [V8E]
Resp: 2.32
